target: Human O-GlcNAcase (His-Tagged hOGA) (Homo sapiens (Human), UniProt O60502); assay: Human O-GlcNAcase enzyme inhibition assay (FL-GlcNAc fluorescence); format: biochemical; settings: His-Tagged hOGA 20 nM, FL-GlcNAc 10 μM, 60 min at room temperature, pH 6.5; read-out: Enzymatic OGA IC50
Sequence (O60502 whole entry): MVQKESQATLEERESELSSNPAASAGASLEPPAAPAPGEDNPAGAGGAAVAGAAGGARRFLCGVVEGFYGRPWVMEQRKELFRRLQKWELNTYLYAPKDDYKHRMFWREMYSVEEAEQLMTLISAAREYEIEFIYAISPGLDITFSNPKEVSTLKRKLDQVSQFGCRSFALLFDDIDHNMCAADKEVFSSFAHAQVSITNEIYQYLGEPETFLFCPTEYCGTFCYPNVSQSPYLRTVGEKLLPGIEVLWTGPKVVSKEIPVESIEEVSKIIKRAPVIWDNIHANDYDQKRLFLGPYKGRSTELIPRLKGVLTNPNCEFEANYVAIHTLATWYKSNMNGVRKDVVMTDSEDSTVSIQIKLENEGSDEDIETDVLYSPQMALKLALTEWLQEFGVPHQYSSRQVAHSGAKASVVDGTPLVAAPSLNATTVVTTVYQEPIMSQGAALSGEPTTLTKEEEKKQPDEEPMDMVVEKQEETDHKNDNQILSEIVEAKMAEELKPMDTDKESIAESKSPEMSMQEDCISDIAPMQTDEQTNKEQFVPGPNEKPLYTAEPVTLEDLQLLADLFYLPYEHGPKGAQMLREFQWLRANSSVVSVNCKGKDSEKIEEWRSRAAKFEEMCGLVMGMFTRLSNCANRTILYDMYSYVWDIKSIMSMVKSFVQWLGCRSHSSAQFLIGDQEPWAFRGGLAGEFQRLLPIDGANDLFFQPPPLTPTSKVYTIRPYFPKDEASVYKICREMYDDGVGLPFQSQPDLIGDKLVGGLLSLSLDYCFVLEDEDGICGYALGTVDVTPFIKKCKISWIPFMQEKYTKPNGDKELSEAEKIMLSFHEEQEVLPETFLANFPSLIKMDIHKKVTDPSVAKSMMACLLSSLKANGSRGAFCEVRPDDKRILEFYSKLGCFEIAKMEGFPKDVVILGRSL
Can you tell me IC50 for the items I'm about to list?

Task: Give Human O-GlcNAcase (His-Tagged hOGA) (Homo sapiens (Human), UniProt O60502) IC50 for CC(c1ccc2c(c1)OCC2)N1CCc2nn(-c3ccccc3)cc2C1 (single isomer, unassigned) [Example 13]
Output: 50 to 200 nM

Task: Give Human O-GlcNAcase (His-Tagged hOGA) (Homo sapiens (Human), UniProt O60502) IC50 for CC(c1ccc2c(c1)OCC2)N1CCn2nc(Nc3ccc(C#N)cn3)nc2C1 (racemic) [Example 19]
Output: 1000 to 10000 nM

Task: Give Human O-GlcNAcase (His-Tagged hOGA) (Homo sapiens (Human), UniProt O60502) IC50 for CC(c1ccc2c(c1)OCO2)N1CCc2ccccc2C1 (racemic) [Example 2]
Output: 200 to 1000 nM

Task: Give Human O-GlcNAcase (His-Tagged hOGA) (Homo sapiens (Human), UniProt O60502) IC50 for CC(c1ccc2c(c1)OCC2)N1CCc2c(cnn2Cc2ncccn2)C1 (racemic) [Example 21]
Output: 200 to 1000 nM

Task: Give Human O-GlcNAcase (His-Tagged hOGA) (Homo sapiens (Human), UniProt O60502) IC50 for CC(c1ccc2c(c1)OCC2)N1CCc2c(cnn2-c2ccc(F)cc2)C1 (racemic) [Example 5]
Output: 50 to 200 nM

Task: Give Human O-GlcNAcase (His-Tagged hOGA) (Homo sapiens (Human), UniProt O60502) IC50 for CC(c1ccc2c(c1)OCC2)N1CCc2nc(-c3ccc(F)cc3)sc2C1 (racemic) [Example 11]
Output: 200 to 1000 nM

Task: Give Human O-GlcNAcase (His-Tagged hOGA) (Homo sapiens (Human), UniProt O60502) IC50 for CC(c1ccc2c(c1)OCC2)N1CCc2n[nH]cc2C1 (racemic) [Example 4]
Output: 50 to 200 nM

Task: Give Human O-GlcNAcase (His-Tagged hOGA) (Homo sapiens (Human), UniProt O60502) IC50 for CC(c1ccc2c(c1)OCC2)N1CCc2nn(-c3ccccc3)cc2C1 (single isomer, unassigned) [Example 12]
Output: 1000 to 10000 nM

Task: Give Human O-GlcNAcase (His-Tagged hOGA) (Homo sapiens (Human), UniProt O60502) IC50 for CC(c1ccc2c(c1)OCC2)N1CCc2nn(-c3ccccc3)cc2C1 (racemic) [Example 8]
Output: 50 to 200 nM

Task: Give Human O-GlcNAcase (His-Tagged hOGA) (Homo sapiens (Human), UniProt O60502) IC50 for CC(c1ccc2c(c1)OCC2)N1CCc2nn(Cc3ncccn3)cc2C1 (racemic) [Example 20]
Output: 200 to 1000 nM

Task: Give Human O-GlcNAcase (His-Tagged hOGA) (Homo sapiens (Human), UniProt O60502) IC50 for CC(c1ccc2c(c1)OCC2)N1CCc2c(cnn2-c2cncnc2)C1 (racemic) [Example 14]
Output: 200 to 1000 nM

Task: Give Human O-GlcNAcase (His-Tagged hOGA) (Homo sapiens (Human), UniProt O60502) IC50 for CC(c1ccc2c(c1)OCC2)N1CCc2nn(C3CCOCC3)cc2C1 (stereo not shown) [Example 15]
Output: 1000 to 10000 nM

Task: Give Human O-GlcNAcase (His-Tagged hOGA) (Homo sapiens (Human), UniProt O60502) IC50 for CC(c1ccc2c(c1)OCC2)N1CCn2nc(-c3cccnc3)nc2C1 (racemic) [Example 18]
Output: 1000 to 10000 nM

Task: Give Human O-GlcNAcase (His-Tagged hOGA) (Homo sapiens (Human), UniProt O60502) IC50 for CC(c1ccc2c(c1)OCC2)N1CCc2nn(-c3ccc(F)cc3)cc2C1 (racemic) [Example 6]
Output: 50 to 200 nM

Task: Give Human O-GlcNAcase (His-Tagged hOGA) (Homo sapiens (Human), UniProt O60502) IC50 for CC(=O)Nc1ncc2c(n1)CCN(C(C)c1ccc3c(c1)OCO3)C2 (racemic) [Example 1]
Output: 1000 to 10000 nM

Task: Give Human O-GlcNAcase (His-Tagged hOGA) (Homo sapiens (Human), UniProt O60502) IC50 for CC(c1ccc2c(c1)OCC2)N1CCc2c(cnn2-c2ccccc2)C1 (racemic) [Example 7]
Output: 50 to 200 nM

====

molecular target: Human O-GlcNAcase (His-Tagged hOGA) (Homo sapiens (Human)); assay: Human O-GlcNAcase enzyme inhibition assay (FL-GlcNAc fluorescence); type: biochemical; conditions: Enzymatic OGA IC50 (M), His-Tagged hOGA 20 nM, FL-GlcNAc 10 μM, 60 min at room temperature, pH 6.5
Can you tell me IC50 for the items I'm about to list?

Task: Give Human O-GlcNAcase (His-Tagged hOGA) (Homo sapiens (Human)) IC50 for CC(=O)Nc1nc2c(s1)CN(C(C)c1ccc3c(c1)OCO3)CC2 (racemic)
Output: 2e-07 to 1e-06 M

Task: Give Human O-GlcNAcase (His-Tagged hOGA) (Homo sapiens (Human)) IC50 for CC(c1ccc2c(c1)OCC2)N1CCn2nc(-c3ccc(S(C)(=O)=O)cc3)nc2C1 (racemic)
Output: 1e-06 to 1e-05 M
